tested system: AarF domain-containing protein kinase 1 (Homo sapiens, UniProt Q86TW2); also: in the data inactive means no Kd found up to 30 µM
Sequence (Q86TW2 whole entry): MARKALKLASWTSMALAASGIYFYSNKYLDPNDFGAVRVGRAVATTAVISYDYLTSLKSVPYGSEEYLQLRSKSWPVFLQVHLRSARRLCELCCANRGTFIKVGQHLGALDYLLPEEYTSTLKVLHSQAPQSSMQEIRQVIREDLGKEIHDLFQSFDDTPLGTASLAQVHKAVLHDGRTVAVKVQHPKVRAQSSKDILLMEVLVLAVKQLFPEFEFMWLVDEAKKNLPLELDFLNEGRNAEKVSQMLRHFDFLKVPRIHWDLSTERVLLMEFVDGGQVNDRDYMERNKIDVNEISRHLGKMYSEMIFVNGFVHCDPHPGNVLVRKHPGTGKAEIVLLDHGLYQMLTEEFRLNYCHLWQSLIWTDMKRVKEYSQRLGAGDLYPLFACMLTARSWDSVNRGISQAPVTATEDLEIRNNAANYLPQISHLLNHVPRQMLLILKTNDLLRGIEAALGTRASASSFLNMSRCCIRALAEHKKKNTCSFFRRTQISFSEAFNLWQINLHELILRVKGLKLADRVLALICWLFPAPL
Active and inactive are the calls of the source.
measured attribute: Kd

Q: Which Kd reading was recorded for the molecule CNC(=O)c1cc(COc2nnc(Nc3ccc(Cl)cc3)c3ccoc23)ccn1 ?
Ans: > 30 µM (inactive)

Q: Which Kd reading was recorded for the molecule CC1(C)CNc2cc(NC(=O)c3cccnc3NCc3ccncc3)ccc21 ?
Ans: > 30 µM (inactive)

Q: Which Kd reading was recorded for the molecule Cn1cc(-c2[nH]c3cc(NC(=O)[C@H](N)C4CCCCC4)cc4c3c2C=NNC4=O)cn1 ?
Ans: 4.5 µM (active)

====

Calls of active or inactive are those of the source.
Below are Kd values measured for UniProt Q92499.
Sequence (Q92499 whole entry): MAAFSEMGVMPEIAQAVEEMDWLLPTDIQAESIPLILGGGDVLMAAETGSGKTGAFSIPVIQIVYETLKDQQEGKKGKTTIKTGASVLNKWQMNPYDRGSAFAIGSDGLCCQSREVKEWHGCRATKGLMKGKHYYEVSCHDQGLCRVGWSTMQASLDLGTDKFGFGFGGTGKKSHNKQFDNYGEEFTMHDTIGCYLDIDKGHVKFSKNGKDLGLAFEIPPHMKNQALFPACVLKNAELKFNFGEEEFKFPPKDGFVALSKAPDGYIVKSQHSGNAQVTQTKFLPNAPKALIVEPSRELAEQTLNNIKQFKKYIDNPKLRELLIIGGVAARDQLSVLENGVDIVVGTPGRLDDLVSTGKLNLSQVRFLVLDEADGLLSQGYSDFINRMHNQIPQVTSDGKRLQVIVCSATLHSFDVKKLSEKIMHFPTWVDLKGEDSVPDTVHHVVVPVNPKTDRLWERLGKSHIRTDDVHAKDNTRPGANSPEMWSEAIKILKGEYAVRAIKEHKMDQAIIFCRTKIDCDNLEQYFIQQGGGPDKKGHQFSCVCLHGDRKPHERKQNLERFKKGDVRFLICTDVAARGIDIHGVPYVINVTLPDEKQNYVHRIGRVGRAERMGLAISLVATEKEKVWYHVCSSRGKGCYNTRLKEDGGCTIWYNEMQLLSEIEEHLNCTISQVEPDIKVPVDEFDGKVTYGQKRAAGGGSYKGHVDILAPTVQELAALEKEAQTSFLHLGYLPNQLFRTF

                           structure_smiles      value_observed
0  CCOc1ccn(-c2ccc(F)cc2)c(=O)c1C(=O)Nc1ccc(Oc2ccnc(N)c2Cl)c(F)c1  > 30 µM (inactive)
1  CNC(=O)c1cc(COc2nnc(Nc3ccc(Cl)cc3)c3ccoc23)ccn1  > 30 µM (inactive)
2  C[C@@H]1COC(Nc2ccc3ncnc(Nc4ccc(OCc5nccs5)c(Cl)c4)c3c2)=N1  > 30 µM (inactive)
3  Cn1c(=O)n(-c2ccc(C(C)(C)C#N)cc2)c2c3cc(-c4cnc5ccccc5c4)ccc3ncc21  > 30 µM (inactive)
4  CCN1CCN(Cc2ccc(Nc3ncc(F)c(-c4cc(F)c5nc(C)n(C(C)C)c5c4)n3)nc2)CC1  > 30 µM (inactive)

Q: Query Kd on UniProt Q92499 for C#Cc1cccc(Nc2ncnc3cc4c(cc23)OCCOCCOCCO4)c1
Ans: > 30 µM (inactive)

Q: Query Kd on UniProt Q92499 for C[C@@]1(C(=O)Nc2ccc(F)nc2)CCCN1c1nc(Nc2cc(C3CC3)n[nH]2)c2cccn2n1
Ans: > 30 µM (inactive)

Q: Query Kd on UniProt Q92499 for CN(c1ncccc1CNc1nc(Nc2ccc3c(c2)CC(=O)N3)ncc1C(F)(F)F)S(C)(=O)=O
Ans: > 30 µM (inactive)

====

tested system: Maternal embryonic leucine zipper kinase (Homo sapiens, UniProt Q14680); also: in the data inactive means no Kd found up to 30 µM
Sequence (Q14680 whole entry): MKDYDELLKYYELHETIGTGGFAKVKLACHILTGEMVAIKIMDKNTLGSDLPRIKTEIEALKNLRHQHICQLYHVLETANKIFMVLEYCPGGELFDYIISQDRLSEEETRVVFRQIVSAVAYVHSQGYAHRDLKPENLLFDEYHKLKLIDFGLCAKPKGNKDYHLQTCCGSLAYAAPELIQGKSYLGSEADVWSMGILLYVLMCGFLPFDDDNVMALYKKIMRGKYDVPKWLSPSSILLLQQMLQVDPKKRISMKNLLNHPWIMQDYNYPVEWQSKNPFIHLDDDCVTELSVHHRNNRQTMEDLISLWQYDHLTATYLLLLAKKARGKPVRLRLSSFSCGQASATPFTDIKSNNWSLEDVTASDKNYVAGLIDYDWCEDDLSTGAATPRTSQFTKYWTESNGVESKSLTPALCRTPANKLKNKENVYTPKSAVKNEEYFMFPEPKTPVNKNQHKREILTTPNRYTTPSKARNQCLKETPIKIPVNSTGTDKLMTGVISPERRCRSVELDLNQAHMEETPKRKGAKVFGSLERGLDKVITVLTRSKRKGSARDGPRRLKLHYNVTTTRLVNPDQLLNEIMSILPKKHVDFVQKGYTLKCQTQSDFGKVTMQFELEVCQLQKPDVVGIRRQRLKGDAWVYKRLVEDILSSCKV
The source made the active and inactive calls.
# valid calls are y for active, n for inactive; nothing else

                                   compound  class_label
0  CCc1nc(C(N)=O)c(Nc2ccc(N3CCC(N4CCN(C)CC4)CC3)c(OC)c2)nc1NC1CCOCC1 [GILTERITINIB]            n
1  c1cc(OCCN2CCCCC2)cc(-c2n[nH]c3ccc(-c4nc[nH]n4)cc23)c1 [CC-401]            y
2  C=CCN(/C=C1/C(=O)O[C@H](COC)[C@@]2(C)C1=C(O)C(=O)C1=C2[C@H](OC(C)=O)C[C@]2(C)C(=O)CC[C@@H]12)CC=C [SONOLISIB]            n

Consider the additional compound presented here.
Q: Per the assay record, what outcome was assigned to FC(F)(F)c1ccc(CNc2ccc(Cc3c[nH]c4ncc(Cl)cc34)cn2)cn1 [PEXIDARTINIB] ?
Ans: n
